The measurements presented in this section are drawn from patent US6017919A.

Molecular target: cannabinoid peripheral type (CB2) receptor (Rattus norvegicus, UniProt Q9QZN9)
Construct: rat cerebellar membrane fraction and spleen cells were respectively used; from tissue; host or cells: rat spleen cells (male SD rats, 7-9 weeks old)
Sequence (Q9QZN9 whole entry): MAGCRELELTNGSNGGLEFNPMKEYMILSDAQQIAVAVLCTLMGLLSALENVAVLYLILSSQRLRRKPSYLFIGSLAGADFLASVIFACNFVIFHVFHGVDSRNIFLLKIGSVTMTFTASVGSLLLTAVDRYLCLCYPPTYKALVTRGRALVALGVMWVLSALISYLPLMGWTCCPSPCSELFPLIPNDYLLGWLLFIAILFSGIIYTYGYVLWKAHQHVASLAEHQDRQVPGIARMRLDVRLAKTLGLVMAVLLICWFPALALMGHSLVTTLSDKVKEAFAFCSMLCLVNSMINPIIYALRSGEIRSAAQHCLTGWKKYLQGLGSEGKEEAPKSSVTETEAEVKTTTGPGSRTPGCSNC
Test: Binding assay, cannabinoid peripheral type receptor (CB2), rat spleen cells, [3H]Win55212-2
Details: rat spleen cells, [3H]Win55212-2 2 nM, 4° C. 360 min; read-out: Ki value, Peripheral receptor (S)
MEASURED ATTRIBUTE: Ki (nM)
Hi! Could you send only the number? It should be in nM, unit omitted.

In the examples that follow, each entry is paired with its recorded Ki.
{"columns": ["COMPOUND", "ASSAY SYSTEM", "UOM", "Ki"],
 "data": [
  ["CCCCCOc1cc(/C=C/C(=O)N[C@@H](Cc2ccc(O)cc2)C(=O)OC)ccc1OC [Example 1-22]", "cannabinoid peripheral type (CB2) receptor (Rattus norvegicus, UniProt Q9QZN9)", "nM", 1.4],
  ["CCCCCOc1cc(C(=O)NCCc2cccc(O)c2)ccc1OC [Example 2-13]", "cannabinoid peripheral type (CB2) receptor (Rattus norvegicus, UniProt Q9QZN9)", "nM", 6.6],
  ["CCCCOc1cc(C(=O)NCCc2ccc(O)cc2)ccc1OC [Example 2-7]", "cannabinoid peripheral type (CB2) receptor (Rattus norvegicus, UniProt Q9QZN9)", "nM", 9.5]
]}

Let us examine a further case.
# input compound: CCCCCNc1cc(/C=C/C(=O)NCCc2ccc(N)cc2)ccc1OC [Example 1-35] ; wanted: its Ki
10
